The measurements presented in this section are drawn from patent US5753483A.

Consider the following compounds and their measured Activity readings.
TARGET OF ASSAY: Pyrophosphorylase (Sus scrofa, UniProt F1S210)
Construct: 64 and 55 kDa bands; native about 125 kDa
Sequence (F1S210 1-505): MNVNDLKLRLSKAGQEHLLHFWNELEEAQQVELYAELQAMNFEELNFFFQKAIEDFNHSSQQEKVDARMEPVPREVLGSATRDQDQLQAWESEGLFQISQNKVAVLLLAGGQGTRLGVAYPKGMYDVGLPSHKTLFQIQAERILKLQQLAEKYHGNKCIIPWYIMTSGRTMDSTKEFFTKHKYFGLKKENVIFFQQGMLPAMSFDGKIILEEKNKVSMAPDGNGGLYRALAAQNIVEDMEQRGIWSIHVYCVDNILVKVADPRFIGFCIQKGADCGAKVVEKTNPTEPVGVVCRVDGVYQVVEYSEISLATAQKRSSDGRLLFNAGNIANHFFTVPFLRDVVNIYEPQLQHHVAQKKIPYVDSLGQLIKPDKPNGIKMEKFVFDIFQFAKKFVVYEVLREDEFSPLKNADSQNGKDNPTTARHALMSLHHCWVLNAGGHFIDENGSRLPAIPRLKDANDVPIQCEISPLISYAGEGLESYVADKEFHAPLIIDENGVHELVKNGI
ASSAY COMMENT: Specificity of pyrophosphorylase (forward direction)
Type: biochemical, pig
TEST CONDITIONS: sugar phosphate 5 mM, UT = 5 mM
Quick note: give the figure in nmol/min, leave out the unit.

Noted Activity for N[C@H]1[C@@H](OP(=O)(O)O)O[C@H](CO)[C@@H](O)[C@@H]1O , tested on Pyrophosphorylase (Sus scrofa, UniProt F1S210): 0.10

Noted Activity for CC(=O)N[C@H]1[C@@H](OP(=O)(O)O)O[C@H](CO)[C@@H](O)[C@@H]1O , tested on Pyrophosphorylase (Sus scrofa, UniProt F1S210): 4.83

Noted Activity for CC(=O)N[C@H]1[C@@H](OP(=O)(O)O)O[C@H](CO)[C@H](O)[C@@H]1O , tested on Pyrophosphorylase (Sus scrofa, UniProt F1S210): 5.28
